System: BT-549 breast
Assay: NCI-60 one-dose screen, 48 h (100 = growth as untreated, 0 = no growth, -100 = all killed)
Conditions: 10 µM unless noted
Compounds without any hit were thinned out: in the full panel of roughly 83,000, 20% have a hit.
Entries and their growth
Reply numerically in %, unit not repeated.

STRUCTURE_NOTATION	RESULT_UNITS	REPORTED_MEASUREMENT
Clc1ccc2c(N3CCN(c4ccnc(NC5CCCCC5)n4)CC3)ccnc2c1	%	71.1
COc1ccc(-c2c(-c3cc4c(c(OC)c3OC)OCO4)noc2N)cc1	%	60.1
NC(=O)c1cc(I)ccc1NC(=O)COc1ccccc1	%	69.3

stdin: Tell me its growth given O=C(Nc1ccccc1)Oc1cccc2cccnc12 as the entry.
stdout: 102

stdin: Tell me its growth given O=C1NC(=S)S/C1=C\c1cccc([N+](=O)[O-])c1 as the entry.
stdout: 81.2
